Origin of measurements: patent US11382328B2

# Test system: E. coli strain W3110
# TEST: Synergy assays: Biolog chemical sensitivity panels with Group IB metal, coefficient of drug interaction (CDI) from relative growth
# Format: cell-based
# CONDITIONS USED: Silver 5.0 μM; 4th of four biocide concentrations; E. coli
Counter-ions that a name gives are not always drawn.
MEASURED METRIC: CDI (coefficient of drug interaction), silver + biocide

# MOLECULE, OBS VALUE
rows = [
    ("CC(C)c1nc2nc(N)nc(N)c2nc1C(C)C", "Tox"),
    ("O=C1C2CC=CCC2C(=O)N1SC(Cl)(Cl)Cl (centres unmarked)", "Tox"),
    ("Nc1c2ccccc2nc2ccccc12", "Tox"),
    ("c1ccc(-c2ccccn2)nc1", "Tox"),
    ("CCCCc1ccc(C(=O)O)nc1", "Tox"),
    ("CCCCC(CC)CNC(=N)NC(=N)NCCCCCCNC(=N)NC(=N)NCC(CC)CCCC (centres unmarked)", "Tox"),
    ("CCCCCCCCCCCC[N+](C)(C)C.[Br-]", "Tox"),
    ("CCCCCCCCCCCC[N+](C)(C)CCCS(=O)(=O)O", "Tox"),
    ("N=C(N)N [guanidine hydrochloride]", "Tox"),
    ("OC(CCN1CCCCC1)(c1ccccc1)c1ccccc1", "Tox"),
    ("Cc1ccc2c(Cl)cc(Cl)c(O)c2n1 [5,7-dichloro-8-hydroxyquinaldine]", "Tox"),
    ("CCn1cc(C(=O)O)c(=O)c2ccc(C)nc21", "Tox"),
    ("Oc1ccccc1-c1ccccc1", "Tox"),
    ("O=C(O)c1ccccc1S", "Tox"),
]
